Assay Summary: Cmax in mouse at 3 mg/kg, po
Assay type: ADME, organism-based
Parameters: route oral, dose 3 mg/kg
Condition Context: in vivo
Measurement Name: Cmax (ng/mL)

                                   compound  assay_result
0  CC(C)C[C@](C)(N)COc1ccc(-c2ccnc(C(F)F)c2)nc1C(F)F           260

* * *

Assay Summary: MRT in dog at 2 mg/kg, iv
Format: ADME, organism-based, Canis lupus familiaris
Condition Context: in vivo
Measurement Name: MRT (h)

In [3]: df
Out[3]:
                                   compound  assay_result
0  CC(C)C[C@](C)(N)COc1ccc(-c2ccnc(C(F)F)c2)nc1C(F)F [PILAVAPADIN]           6.9

* * *

Assay Summary: Cmax in plasma of overnight fasted Sprague-Dawley rat model of streptozotocin induced diabetic peripheral neuropathic mechanical allodynia at 1 mg/kg, po measured after 5.5 hrs
Type: ADME, organism-based
Parameters: route oral, time 5.5 hrs, dose 1 mg/kg
Measurement Name: Cmax

                                   compound  assay_result
0  CC(C)C[C@](C)(N)COc1ccc(-c2ccnc(C(F)F)c2)cc1C(F)(F)F         80 nM

* * *

Target Entity: UniProt:P08684
Sequence (P08684 whole entry): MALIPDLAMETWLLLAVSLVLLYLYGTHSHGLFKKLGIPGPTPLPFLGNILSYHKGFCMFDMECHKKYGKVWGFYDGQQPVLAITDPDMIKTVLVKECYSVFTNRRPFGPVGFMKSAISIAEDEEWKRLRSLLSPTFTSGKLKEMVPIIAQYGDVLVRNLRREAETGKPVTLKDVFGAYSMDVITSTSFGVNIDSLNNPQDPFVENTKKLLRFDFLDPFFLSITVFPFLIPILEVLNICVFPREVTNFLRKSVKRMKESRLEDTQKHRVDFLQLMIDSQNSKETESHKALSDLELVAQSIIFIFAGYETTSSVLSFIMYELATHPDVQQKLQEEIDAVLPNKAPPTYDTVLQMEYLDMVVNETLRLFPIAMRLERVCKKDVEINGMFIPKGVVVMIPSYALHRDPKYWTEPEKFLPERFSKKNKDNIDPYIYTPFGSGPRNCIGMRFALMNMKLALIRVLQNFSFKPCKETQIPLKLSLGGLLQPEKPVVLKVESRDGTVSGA
Assay Summary: Time dependent inhibition of CYP3A4 (unknown origin) using BSF as substrate measured at 30 mins
Type: ADME
pIC50: −log10 of the molar value.
Measurement Name: pIC50

>>> df
                                   compound  assay_result
0  CC(C)C[C@](C)(N)COc1ccc(-c2ccnc(C(F)F)c2)nc1C(F)F        < 4.70

* * *

Target Entity: Sodium-dependent noradrenaline transporter (Homo sapiens)
Sequence (P23975 whole entry): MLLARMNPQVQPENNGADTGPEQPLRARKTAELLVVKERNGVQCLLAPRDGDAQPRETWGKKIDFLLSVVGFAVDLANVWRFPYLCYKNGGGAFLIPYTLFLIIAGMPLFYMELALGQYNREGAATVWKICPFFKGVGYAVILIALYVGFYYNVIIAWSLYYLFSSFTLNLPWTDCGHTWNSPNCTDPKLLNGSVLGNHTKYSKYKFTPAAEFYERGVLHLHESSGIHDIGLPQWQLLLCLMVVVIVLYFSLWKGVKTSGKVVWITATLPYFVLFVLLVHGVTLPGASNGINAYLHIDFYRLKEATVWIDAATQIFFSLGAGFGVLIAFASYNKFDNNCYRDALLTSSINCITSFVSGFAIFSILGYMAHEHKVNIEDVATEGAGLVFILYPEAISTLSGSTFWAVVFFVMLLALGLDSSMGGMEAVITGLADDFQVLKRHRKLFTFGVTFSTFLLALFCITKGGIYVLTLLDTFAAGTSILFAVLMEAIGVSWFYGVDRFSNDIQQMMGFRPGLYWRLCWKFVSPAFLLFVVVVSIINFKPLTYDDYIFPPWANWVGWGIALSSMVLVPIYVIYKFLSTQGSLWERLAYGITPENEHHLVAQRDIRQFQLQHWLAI
Measurement Name: IC50 (nM)

>>> df
                                   compound                             target_entity  assay_result
0  CC(C)C[C@](C)(N)COc1ccc(-c2ccnc(C(F)F)c2)nc1C(F)F  Sodium-dependent noradrenaline transporter (Homo sapiens)           390

* * *

Assay Summary: Cmax in overnight fasted Sprague-Dawley rat plasma with streptozotocin induced diabetic peripheral neuropathic mechanical allodynia at 0.1 mg/kg, po measured at 5.5 hrs post dose
Format: ADME, organism-based
Set-up: route oral, time 5.5 hrs, dose 0.1 mg/kg
Measurement Name: Cmax (nM)

>>> print(df.to_string())
                                   compound  measurement_name  unit_text  assay_result
0  CC(C)C[C@](C)(N)COc1ccc(-c2ccnc(C(F)F)c2)nc1C(F)F [PILAVAPADIN]              Cmax         nM             6

* * *

Assay Summary: Oral bioavailability in monkey at 3 mg/kg
Type: ADME, organism-based, Macaca mulatta
Condition Context: rhesus monkey, in vivo
Measurement Name: bioavailability (%)

                                   compound  measurement_name  assay_result
0  CC(C)C[C@](C)(N)COc1ccc(-c2ccnc(C(F)F)c2)nc1C(F)F [PILAVAPADIN]   bioavailability            11

* * *

Assay Summary: Cmax in Sprague-Dawley rat plasma with CCI induced thermal hyperalgesia at 0.1 mg/kg, po measured at 5.75 hrs post dose
Assay type: ADME, organism-based
Set-up: route oral, dose 0.1 mg/kg, time 5.75 hrs
Measurement Name: Cmax (nM)

                                   compound  measurement_name  assay_result
0  CC(C)C[C@](C)(N)COc1ccc(-c2ccnc(C(F)F)c2)nc1C(F)F              Cmax             5

* * *

Assay Summary: Apparent elimination half life in mouse at 2 mg/kg, iv
Type: ADME, organism-based
Condition Context: in vivo, read-out: betat1/2(app) (converted)
Measurement Name: half-life (min)

                                   compound  assay_result
0  CC(C)C[C@](C)(N)COc1ccc(-c2ccnc(C(F)F)c2)nc1C(F)F [PILAVAPADIN]          2650

* * *

Assay Summary: Oral bioavailability in mouse at 3 mg/kg
Type: ADME, organism-based
Condition Context: in vivo
Measurement Name: bioavailability (%)

>>> df
                                   compound  measurement_name  unit_text  assay_result
0  CC(C)C[C@](C)(N)COc1ccc(-c2ccnc(C(F)F)c2)nc1C(F)F   bioavailability          %           100

* * *

Assay Summary: AUC (infinity) in rat at 2 mg/kg, iv
Type: ADME, organism-based
Design: time infinity, route intravenous, dose 2 mg/kg
Condition Context: in vivo
Measurement Name: AUC(0-inf) (ng·h/mL)

                                   compound  measurement_name  assay_result
0  CC(C)C[C@](C)(N)COc1ccc(-c2ccnc(C(F)F)c2)nc1C(F)F        AUC(0-inf)          1180

* * *

Target Entity: UniProt:Q2M2I8
Sequence (Q2M2I8 whole entry): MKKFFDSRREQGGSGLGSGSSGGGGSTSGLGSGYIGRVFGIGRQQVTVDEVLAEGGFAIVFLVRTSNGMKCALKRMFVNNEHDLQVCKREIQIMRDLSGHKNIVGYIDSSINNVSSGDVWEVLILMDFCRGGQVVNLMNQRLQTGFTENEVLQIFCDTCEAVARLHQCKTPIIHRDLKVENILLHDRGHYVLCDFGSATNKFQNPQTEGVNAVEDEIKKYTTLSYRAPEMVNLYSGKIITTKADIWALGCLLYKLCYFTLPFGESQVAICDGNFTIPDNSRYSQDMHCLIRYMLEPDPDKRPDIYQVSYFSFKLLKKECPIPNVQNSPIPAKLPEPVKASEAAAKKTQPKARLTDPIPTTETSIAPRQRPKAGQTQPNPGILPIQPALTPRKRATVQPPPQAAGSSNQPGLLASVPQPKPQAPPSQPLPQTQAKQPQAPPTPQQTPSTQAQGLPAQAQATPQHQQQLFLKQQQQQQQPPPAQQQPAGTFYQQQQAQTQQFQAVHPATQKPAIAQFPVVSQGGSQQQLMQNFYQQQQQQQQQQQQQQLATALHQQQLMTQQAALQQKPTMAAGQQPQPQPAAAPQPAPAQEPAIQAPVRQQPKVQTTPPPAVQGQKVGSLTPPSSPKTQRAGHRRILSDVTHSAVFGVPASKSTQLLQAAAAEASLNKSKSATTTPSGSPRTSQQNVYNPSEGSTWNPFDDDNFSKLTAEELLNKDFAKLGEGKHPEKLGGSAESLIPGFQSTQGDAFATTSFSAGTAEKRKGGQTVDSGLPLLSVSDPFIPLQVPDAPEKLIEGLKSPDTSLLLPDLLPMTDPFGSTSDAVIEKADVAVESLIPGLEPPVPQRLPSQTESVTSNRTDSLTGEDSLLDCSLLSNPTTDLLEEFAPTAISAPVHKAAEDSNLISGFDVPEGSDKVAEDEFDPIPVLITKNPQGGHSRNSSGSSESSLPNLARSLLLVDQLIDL
Assay Summary: Inhibition of […] in HEK293F cells assessed as reduction in phospho mu2 formation incubated for 3 hrs by Western blot analysis
Format: cell-based
pIC50: −log10 of the molar value.
Rule: Condition met for pIC50 not less than 8, Condition not met for anything less.

In [3]: df
Out[3]:
                                   compound  qualitative_label
0  Cc1cc(-c2ccc(OC[C@@](C)(N)CC(C)C)c(C(F)F)c2)ccn1      Condition met
1  Cc1cc(-c2ccc(OC[C@@](C)(N)CC(C)C)c(C(F)(F)F)c2)ccn1  Condition not met
2  CC(C)C[C@](C)(N)COc1ccc(-c2ccncc2)cc1C(F)(F)F  Condition not met
3  Cc1cc(-c2ccc(OC[C@@H](N)CC(C)C)c(C#N)c2)ccn1  Condition not met
4  CC(C)C[C@](C)(N)COc1ccc(-c2ccnc(C(F)F)c2)nc1C(F)F [PILAVAPADIN]      Condition met
5  CC(C)C[C@](C)(N)COc1ccc(-c2ccnc(C(F)F)c2)cc1C(F)F      Condition met

* * *

Target Entity: Rho-associated protein kinase 2 (Homo sapiens)
Sequence (O75116 whole entry): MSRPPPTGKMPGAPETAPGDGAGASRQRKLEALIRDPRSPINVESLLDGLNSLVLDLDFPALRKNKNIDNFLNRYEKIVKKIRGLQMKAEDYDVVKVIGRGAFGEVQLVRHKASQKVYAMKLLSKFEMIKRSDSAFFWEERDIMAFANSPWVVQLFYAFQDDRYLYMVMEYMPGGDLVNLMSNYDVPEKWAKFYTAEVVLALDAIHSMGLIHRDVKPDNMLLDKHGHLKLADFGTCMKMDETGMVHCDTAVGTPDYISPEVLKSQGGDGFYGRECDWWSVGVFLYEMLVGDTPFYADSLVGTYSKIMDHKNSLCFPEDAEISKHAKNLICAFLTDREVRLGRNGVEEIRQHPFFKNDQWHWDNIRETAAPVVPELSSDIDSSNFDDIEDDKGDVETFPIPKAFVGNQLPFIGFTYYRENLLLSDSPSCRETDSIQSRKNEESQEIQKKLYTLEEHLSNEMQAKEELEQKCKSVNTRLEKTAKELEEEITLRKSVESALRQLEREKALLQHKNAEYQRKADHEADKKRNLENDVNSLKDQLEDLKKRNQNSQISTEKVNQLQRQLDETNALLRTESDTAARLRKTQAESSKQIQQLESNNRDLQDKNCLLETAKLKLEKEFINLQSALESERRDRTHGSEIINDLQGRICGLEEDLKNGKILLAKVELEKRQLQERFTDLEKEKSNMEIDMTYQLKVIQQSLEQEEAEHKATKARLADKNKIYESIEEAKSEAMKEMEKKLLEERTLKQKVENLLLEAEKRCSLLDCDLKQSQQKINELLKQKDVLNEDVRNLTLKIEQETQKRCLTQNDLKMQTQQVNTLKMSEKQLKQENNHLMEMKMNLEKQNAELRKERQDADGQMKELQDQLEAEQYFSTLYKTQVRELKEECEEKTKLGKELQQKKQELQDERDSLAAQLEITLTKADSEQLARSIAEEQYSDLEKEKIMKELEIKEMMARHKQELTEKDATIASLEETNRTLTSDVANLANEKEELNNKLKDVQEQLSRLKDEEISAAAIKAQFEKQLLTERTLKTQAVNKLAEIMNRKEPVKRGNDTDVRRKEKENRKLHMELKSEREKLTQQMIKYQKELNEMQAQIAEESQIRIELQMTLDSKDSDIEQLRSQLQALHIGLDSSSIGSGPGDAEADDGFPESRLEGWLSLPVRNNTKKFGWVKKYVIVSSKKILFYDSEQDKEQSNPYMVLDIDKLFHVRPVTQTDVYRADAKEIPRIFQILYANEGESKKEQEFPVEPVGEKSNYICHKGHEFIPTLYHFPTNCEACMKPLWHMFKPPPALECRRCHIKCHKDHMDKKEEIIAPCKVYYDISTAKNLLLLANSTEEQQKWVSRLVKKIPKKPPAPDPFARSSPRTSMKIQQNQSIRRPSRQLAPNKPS
pIC50: −log10 of the molar value.
Measurement Name: pIC50

>>> print(df.to_string())
                                   compound  assay_result
0  CC(C)C[C@](C)(N)COc1ccc(-c2ccnc(C(F)F)c2)cc1C(F)F          6.38

* * *

Assay Summary: Permeability across basolateral to apical side in human Caco-2 cells at 3 uM measured after 2 hrs by LC-MS/MS analysis
Assay type: ADME, cell-based
Condition Context: read-out: permeability
Form field: Papp B→A at 2 h, 3 µM (one value per entry).
Measurement Name: Papp B→A at 2 h, 3 µM

In [3]: df
Out[3]:
                                   molecule     assay_result
0  Cc1cc(-c2ccc(OC[C@@](C)(N)CC(C)C)c(C(F)(F)F)c2)ccn1   5.9 ×10⁻⁶ cm/s
1  CC(C)C[C@](C)(N)COc1ccc(-c2ccnc(C(F)F)c2)cc1C(F)(F)F   1.7 ×10⁻⁶ cm/s
2  Cc1cc(-c2ccc(OC[C@@](C)(N)CC(C)C)c(C(F)F)c2)ccn1     6 ×10⁻⁶ cm/s
3  CC(C)C[C@](C)(N)COc1ccc(-c2ccnc(C(F)F)c2)cc1C(F)F   6.2 ×10⁻⁶ cm/s
4  CC(C)C[C@](C)(N)COc1ccc(-c2ccnc(C(F)F)c2)nc1C(F)F [PILAVAPADIN]  13.8 ×10⁻⁶ cm/s
5  CC(C)C[C@](C)(N)COc1ccc(-c2ccnc(C(F)F)c2)cc1C#N  17.7 ×10⁻⁶ cm/s

* * *

Assay Summary: Drug concentration in Sprague-Dawley rat spinal cord with CCI induced thermal hyperalgesia at 0.3 mg/kg, po measured at 5.75 hrs post dose
Type: ADME, organism-based
Condition Context: read-out: Ct
Measurement Name: concentration at 5.75 h (nM)

>>> print(df.to_string())
                                   compound  unit_text  assay_result
0  CC(C)C[C@](C)(N)COc1ccc(-c2ccnc(C(F)F)c2)nc1C(F)F         nM           431

* * *

Assay Summary: Clearance in dog at 2 mg/kg, iv
Type: ADME, organism-based, Canis lupus familiaris
Condition Context: in vivo
Measurement Name: clearance (mL/min/kg)

In [3]: df
Out[3]:
                                   compound  assay_result
0  CC(C)C[C@](C)(N)COc1ccc(-c2ccnc(C(F)F)c2)nc1C(F)F          28.5
